Molecular target: recombinant eIF4E (Homo sapiens (Human))
Sequence (P06730 whole entry): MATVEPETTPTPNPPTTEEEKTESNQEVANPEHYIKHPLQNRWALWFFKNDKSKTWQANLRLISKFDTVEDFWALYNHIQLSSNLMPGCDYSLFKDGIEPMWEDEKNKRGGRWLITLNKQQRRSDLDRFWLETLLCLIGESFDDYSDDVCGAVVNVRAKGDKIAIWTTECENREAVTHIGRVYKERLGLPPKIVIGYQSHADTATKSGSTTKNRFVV
Test: Fluorescence polarization competition assay for eIF4E binding potency
Settings: fluorescence polarization competition, 75 nM recombinant eIF4E, 20 nM EDA-m7GDP-ATTO-550; IC50 class; read-out: elF4E FP
Procedure: Compounds were screened for eIF4E binding potency using a fluorescence polarization competition assay. All binding reactions were performed in fluorescence polarization buffer (FPB) containing 20 mM Tris pH 7.5, 100 mM NaCl, 1 mM DTT, and 0.02% Tween-20. Final binding reactions contained 75 nM recombinant eIF4E (Beryllium, custom order), 20 nM EDA-m^7GDP-ATTO-550 (Jena Bioscience, NU-827-550) and varying concentrations of the inhibitory compound of interest. […]
So I've got a bunch of compounds here, and I need their IC50 values.

// lookup IC50 for C#Cc1c(C(=O)O)cccc1-c1cc(Cl)ccc1OCCn1c(C(F)F)nc2cccc(C#N)c2c1=O
50 to 1000 nM

// lookup IC50 for Cc1cc(-c2cc(Cl)ccc2OCCn2c(C)nc3cc(C(F)(F)F)c(Cl)c(C#N)c3c2=O)c2scc(C(=O)O)c2n1
< 50 nM

// lookup IC50 for Cc1cc(-c2cc(Cl)ccc2OCCn2c(C)nc3cc(C(F)(F)F)c(CCN(C)C)c(C#N)c3c2=O)c2scc(C(=O)O)c2n1
< 50 nM

// lookup IC50 for Cc1nc2cnc(N3CCN(CCC(F)(F)F)CC3)c(C#N)c2c(=O)n1CC#Cc1ccc(Cl)cc1-c1ccnc2c(C(=O)O)csc12
< 50 nM

// lookup IC50 for Cc1nc2cnc(N3CCN(C)C(C)(C)C3)c(C#N)c2c(=O)n1CCOc1ccc(Cl)cc1-c1ccnc2c(C(=O)O)csc12
< 50 nM

// lookup IC50 for Cc1nc2cc(Cl)c(C(F)F)c(C#N)c2c(=O)n1CCOc1ccc(Cl)cc1-c1ccnc2c(C(=O)NS(C)(=O)=O)csc12
< 50 nM

// lookup IC50 for N#Cc1cc2c(=O)n(Cc3cc4cc(Cl)cc(-c5cccc(C(=O)O)c5)c4o3)cnc2cn1
> 1000 nM

// lookup IC50 for Cc1nc2cnc(C3CC3)c(C#N)c2c(=O)n1CC#Cc1ccc(Cl)cc1-c1ccnc2c(C(=O)O)csc12
< 50 nM

// lookup IC50 for Cc1nc2cc(C#N)cc(C#N)c2c(=O)n1CC#Cc1ccc(Cl)cc1-c1ccnc2c(C(=O)O)csc12
< 50 nM

// lookup IC50 for Cc1nc2cc(Cl)c3c(cnn3C)c2c(=O)n1CCOc1ccc(Cl)cc1-c1ccnc2c(C(=O)O)csc12
50 to 1000 nM

// lookup IC50 for Cc1cc(-c2cc(Cl)ccc2OCCn2c(C)nc3cc(C(F)(F)F)c(-c4ccccn4)cc3c2=O)c2scc(C(=O)O)c2n1
< 50 nM

// lookup IC50 for O=C(O)c1cccc(-c2cc(Cl)ccc2OCCc2cc(C(F)(F)F)nc3nc(Nc4ccccc4)[nH]c(=O)c23)c1
50 to 1000 nM

// lookup IC50 for Cc1nc2cc(F)cc(C#N)c2c(=O)n1CCOc1ccc(Cl)cc1-c1cccc(C(=O)O)c1
50 to 1000 nM

// lookup IC50 for O=C(O)c1cccc(-c2cc(Cl)ccc2OCCn2ccc3ncccc3c2=O)c1
> 1000 nM
